target: T1, human CD28-Fc chimera (R&D, Cat. No. 342-CD) (human, UniProt P10747 19-152); assay: SPR (Biacore), CD28-Fc immobilized on CM5 chip, VHH as analyte, multi-cycle kinetics, 1:1 model
T1 construct: Bought reagent; also called recombinant human CD28-Fc fusion protein; recombinant CD28 fused to an Fc backbone; Fc part of the bought chimera not given
Response field label: string, one of Y (kon strictly below 50000 M⁻¹ s⁻¹) or N.

Past entries and their recorded results:
binder="VHH 10E1 (VHH, also called 10E01) VHH: EVQLVESGGGLVQAGESLRLSCAASGSIASIKTMAWYRQAPGSQRELVAAINYIKEIYYADSVKGRFTISRDNAKTTVYLQMNSLRPEDTAVYYCVVDVTKEDYWYWGQGTQVTVSS" label_class=Y
binder="VHH 5A3 (VHH, also called 5A03) VHH: EVQLVESGGGLVQAGESLRLSCAASGSIASINSMGWYRQAPGSQRELVAAINEKLLIYYADSVKGRFTISRDNAKTTVYLQMNSLRPEDTAVYYCVVDLYGSDYWDWGQGTQVTVSS" label_class=Y
binder="VHH 9B3 (VHH, also called 9B03) VHH: EVQLVESGGGLVQAGESLRLSCAASGSIASIRTMAWYRQAPGSQRELVAAISSGREVYYADSVKGRFTISRDNAKTTVYLQMNSLRPEDTAVYYCVVDMYWQDYWWWGQGTQVTVSS" label_class=N
binder="VHH 11E11 (VHH) VHH: EVQLVESGGGLVQAGESLRLSCAASGSIASINSMAWYRQAPGSQRELVAAISNAREVYYADSVKGRFTISRDNAKTTVYLQMNSLRPEDTAVYYCVVDVYFQEYWYWGQGTQVTVSS" label_class=Y

Proceed to the following item.
Bench note: check whether VHH 11G11 (VHH) VHH: EVQLVESGGGLVQAGESLRLSCAASGSIASINTMAWYRQAPGSQRELVAAINSISRTYYADSVKGRFTISRDNAKTTVYLQMNSLRPEDTAVYYCVVDVTKEDYWYWGQGTQVTVSS shows kon below 50000 M⁻¹ s⁻¹
Y
